subject of test: Nicotinic acetylcholine receptor alpha6/alpha3/beta4 (Rattus norvegicus, UniProt P04757+P12392+P43143)
Sequence (P04757 whole entry): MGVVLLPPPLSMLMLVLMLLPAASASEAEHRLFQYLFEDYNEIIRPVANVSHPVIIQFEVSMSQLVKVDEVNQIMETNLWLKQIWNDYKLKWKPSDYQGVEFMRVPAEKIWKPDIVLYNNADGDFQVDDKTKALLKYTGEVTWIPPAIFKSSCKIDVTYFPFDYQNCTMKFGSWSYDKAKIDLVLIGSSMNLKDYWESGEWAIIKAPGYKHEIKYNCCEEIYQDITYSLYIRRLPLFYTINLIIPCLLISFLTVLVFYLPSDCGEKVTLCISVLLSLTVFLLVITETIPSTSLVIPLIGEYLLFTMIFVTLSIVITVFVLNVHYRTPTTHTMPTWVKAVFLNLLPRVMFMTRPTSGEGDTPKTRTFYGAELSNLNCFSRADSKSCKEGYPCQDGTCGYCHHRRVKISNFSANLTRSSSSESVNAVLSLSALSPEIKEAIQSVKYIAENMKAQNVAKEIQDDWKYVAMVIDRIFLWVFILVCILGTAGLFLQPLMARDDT
Sequence (P12392 whole entry): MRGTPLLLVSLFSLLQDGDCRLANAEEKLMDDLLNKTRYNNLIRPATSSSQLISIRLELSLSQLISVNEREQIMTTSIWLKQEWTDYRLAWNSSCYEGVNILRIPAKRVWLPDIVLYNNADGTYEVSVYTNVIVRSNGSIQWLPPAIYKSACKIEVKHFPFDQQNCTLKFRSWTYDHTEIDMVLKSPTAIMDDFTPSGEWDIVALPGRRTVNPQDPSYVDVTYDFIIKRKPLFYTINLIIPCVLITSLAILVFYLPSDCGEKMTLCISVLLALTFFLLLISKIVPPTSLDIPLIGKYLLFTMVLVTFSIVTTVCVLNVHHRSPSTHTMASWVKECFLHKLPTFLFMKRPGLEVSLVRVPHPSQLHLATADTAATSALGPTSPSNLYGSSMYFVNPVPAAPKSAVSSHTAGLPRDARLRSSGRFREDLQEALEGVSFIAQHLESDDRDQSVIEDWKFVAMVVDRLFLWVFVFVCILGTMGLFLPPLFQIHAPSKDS
Sequence (P43143 whole entry): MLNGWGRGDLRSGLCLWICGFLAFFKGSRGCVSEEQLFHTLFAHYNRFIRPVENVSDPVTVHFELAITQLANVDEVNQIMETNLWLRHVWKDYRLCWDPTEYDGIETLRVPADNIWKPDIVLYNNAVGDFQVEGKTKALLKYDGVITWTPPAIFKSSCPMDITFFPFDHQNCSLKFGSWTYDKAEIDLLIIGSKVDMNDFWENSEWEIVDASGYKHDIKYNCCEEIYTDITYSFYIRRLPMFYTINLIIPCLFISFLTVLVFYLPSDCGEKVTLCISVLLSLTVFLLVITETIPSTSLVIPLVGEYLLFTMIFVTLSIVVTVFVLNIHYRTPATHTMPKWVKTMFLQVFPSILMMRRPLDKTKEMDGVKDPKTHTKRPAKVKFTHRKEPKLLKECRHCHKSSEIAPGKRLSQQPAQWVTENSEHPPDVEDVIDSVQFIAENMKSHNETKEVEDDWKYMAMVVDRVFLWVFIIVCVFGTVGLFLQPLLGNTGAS
test method notes: Antagonist activity at rat alpha6/alpha3beta4 nACHR expressed in xenopous laevis oocyte assessed as inhibition of ACh induced channel current after 5 mins at -70 mV holding potential by two electrode voltage clamp method
Where a SMILES comes first, the peptide text is derived from it. Bridges are numbered along the chain shown (N, C = ends). [ ]: non-standard residue; d: D form. hMet = CSCCC[C@H](N)C(=O)O
Below is a list of entries, each paired with its recorded IC50 value.

| compound | readout | observed value |
| --- | --- | --- |
| CC[C@H](C)[C@@H]1NC(=O)[C@@H]2CCCN2C(=O)[C@H](CO)NC(=O)[C@H](CCCSC)NC(=O)[C@H](C)NC(=O)[C@H](CO)NC(=O)[C@@H]2CSSC[C@H](NC(=O)CN)C(=O)N[C@@H](CSSC[C@@H](C(N)=O)NC1=O)C(=O)N[C@@H](CO)C(=O)N[C@@H](Cc1cnc[nH]1)C(=O)N[C@@H](C)C(=O)N[C@@H](C(C)C)C(=O)N2 (H-GCCSHAVCSA[hMet]SPIC-NH2; disulfide 2-8, 3-15) | IC50 | > 10 µM |
| CC[C@H](C)[C@@H]1NC(=O)[C@H](C)NC(=O)[C@H](CO)NC(=O)[C@H](CCCSC)NC(=O)[C@H](C)NC(=O)[C@H](CO)NC(=O)[C@@H]2CSSC[C@H](NC(=O)CN)C(=O)N[C@@H](CSSC[C@@H](C(N)=O)NC1=O)C(=O)N[C@@H](CO)C(=O)N[C@@H](Cc1cnc[nH]1)C(=O)N1CCC[C@H]1C(=O)N[C@@H](C(C)C)C(=O)N2 (H-GCCSHPVCSA[hMet]SAIC-NH2; disulfide 2-8, 3-15) | IC50 | > 10 µM |

Input line: # query: IC50 of entry CC[C@H](C)[C@@H]1NC(=O)[C@@H]2CCCN2C(=O)[C@H](CO)NC(=O)[C@H](CCCSC)NC(=O)[C@H](C)NC(=O)[C@H](CO)NC(=O)[C@@H]2CSSC[C@H](NC(=O)CN)C(=O)N[C@@H](CSSC[C@@H](C(N)=O)NC1=O)C(=O)N[C@@H](CO)C(=O)N[C@@H](C)C(=O)N1CCC[C@H]1C(=O)N[C@@H](C(C)C)C(=O)N2 (H-GCCSAPVCSA[hMet]SPIC-NH2; disulfide 2-8, 3-15)
Output line: > 10 µM
